System: Puccinia recondita f sp. tritici
Test: Test F: wheat leaf rust, preventive spray on wheat seedlings
Conditions: 10 ppm test solution; 100 = 100% disease control, 0 = no control relative to controls
Listed here: items and their measured Test F disease control rating.

# Compound, Value Units, Test F disease control rating
data = [
    ("OC(Cn1cncn1)(C1=NOC2c3ccccc3CCC12)c1ccc(Cl)cc1 (stereo not shown) [Compound 223]", "%", 100),
    ("CC(C)(C)C(O)(Cn1cncn1)C1=NOC(COc2ccc(-c3ccccc3)cc2)C1 (single isomer, unassigned) [Compound 228]", "%", 86),
    ("OC(Cn1cncn1)(C1=NOC(COc2ccc(Cl)cc2)C1)C1CCCCC1 (single isomer, unassigned) [Compound 266]", "%", 100),
    ("CC(C)(C)C(O)(Cn1cncn1)C1=NOC(COc2ccc(Cl)cc2Cl)C1 (single isomer, unassigned) [Compound 255]", "%", 100),
]
